- SYSTEM_UNDER_TEST: Cytochrome P450 2D6 (Homo sapiens)
- ASSAY_DETAILS: Cytochrome panel assay with activity outcomes
- EXPERIMENTAL_CONDITIONS: recombinant CYP, pro-luciferin dealkylation, luminescence, p450-cyp2d6; series mostly up to 57.1 µM
Hit rate of the full screen: of about 16,000 compounds, about 2,600 (16%) were called active. About 20% were inconclusive and are not listed. Not all results are given here.
ASSAY_ENDPOINT: AC50

Solved entries (count: 5):
CSCC[C@H](NC(=O)c1nn(C)c(=O)c2ccccc12)c1nc2ccccc2[nH]1; inactive
CS(=O)(=O)N1CC(C(=O)NC2CC2)Oc2ccc(Cl)cc21 (configuration not stated); inactive
O=C(Oc1ccc2ccccc2c1Br)N1CCCCCC1; inactive
O=C(CCN1CCCCC1)c1csc2ccccc12; 1 µM (active)
CNC(=O)c1nnn(Cc2ccccc2)c1NC(=O)C(F)(F)F; inactive

**Query** What does the record list as AC50 for `C=CCNC(=O)c1cccn1-c1ccsc1C(=O)OC` ?
**Result** inactive

###

- SYSTEM_UNDER_TEST: Cytochrome P450 2D6 (Homo sapiens) (UniProt P10635)
- Sequence (P10635 whole entry, looked up): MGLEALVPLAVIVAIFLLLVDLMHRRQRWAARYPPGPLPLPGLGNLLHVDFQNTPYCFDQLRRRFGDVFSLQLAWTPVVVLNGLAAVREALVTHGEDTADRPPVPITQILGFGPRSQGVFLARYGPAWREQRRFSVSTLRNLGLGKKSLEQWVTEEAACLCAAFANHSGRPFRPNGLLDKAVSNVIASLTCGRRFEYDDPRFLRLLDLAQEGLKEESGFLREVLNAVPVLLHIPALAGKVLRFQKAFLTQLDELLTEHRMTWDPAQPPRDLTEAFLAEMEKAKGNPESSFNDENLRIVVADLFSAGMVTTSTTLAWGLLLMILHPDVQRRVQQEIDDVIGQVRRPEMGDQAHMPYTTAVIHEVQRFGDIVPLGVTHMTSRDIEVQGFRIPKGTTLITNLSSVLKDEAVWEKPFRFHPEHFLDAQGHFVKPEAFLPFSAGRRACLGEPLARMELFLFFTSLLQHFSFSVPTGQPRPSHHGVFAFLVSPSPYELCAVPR
- ASSAY_DETAILS: Cytochrome panel assay with activity outcomes
- EXPERIMENTAL_CONDITIONS: recombinant CYP, pro-luciferin dealkylation, luminescence, p450-cyp2d6; series mostly up to 57.1 µM
About 2,600 (16%) of roughly 16,000 compounds were called active. Not shown: some 20% with an inconclusive outcome. Calls follow the shape of the dose curve; as a rule, active = well fitted curve in the direction sought with a large enough effect; inconclusive = small, poorly fitted or top-dose-only effect, or effect the other way; inactive = no such curve, though single readings can be large or run the other way. These entries were drawn from the full list.
Pick one and only one: T = active, F = inactive

Some solved entries appear below for comparison.
N#Cc1cccc(-c2nccc(NCc3ccccc3)n2)c1; T
c1ccn(-c2ccc(N3CCOCC3)cc2)c1; F
CCCCN(C(=O)Nc1ccc(OCC)cc1)C1CCN(C(C)=O)CC1; F

**Query** Which result was noted for this compound in the test: `CC(=O)OC[C@H]1O[C@@H](O/N=C(\C)CCN2CCc3nc(-c4ccccc4)c(-c4ccccc4)cc3C2)[C@H](OC(C)=O)[C@@H](OC(C)=O)[C@H]1OC(C)=O`
**Result** T

**Query** Which result was noted for this compound in the test: `N#Cc1cccc(-c2nccc(NCc3cccnc3)n2)c1`
**Result** F

**Query** Which result was noted for this compound in the test: `CC(C)(C)c1nnc(NC(=O)NS(=O)(=O)c2ccccc2)s1`
**Result** F

###

- SYSTEM_UNDER_TEST: Cytochrome P450 2D6 (Homo sapiens) (UniProt P10635)
- ASSAY_DETAILS: Cytochrome panel assay with activity outcomes
- EXPERIMENTAL_CONDITIONS: recombinant CYP, pro-luciferin dealkylation, luminescence, p450-cyp2d6; series mostly up to 57.1 µM
In all, about 16,000 compounds went through this assay and about 2,600 (16%) were called active. Roughly 20% stayed inconclusive and do not appear here. Calls follow the shape of the dose curve; as a rule, active = well fitted curve in the direction sought with a large enough effect; inconclusive = small, poorly fitted or top-dose-only effect, or effect the other way; inactive = no such curve, though single readings can be large or run the other way. A selection follows.
Pick one and only one: label 1 (active), label 0 (inactive)

COc1ccc(/C=C/C(=O)Nc2cc(C(F)(F)F)ccc2Cl)cc1; label 1
COc1cccc(-c2nnc3n2N=C(C(C)(C)C)CS3)c1; label 0
Cc1ccc(-c2c(C)sc(NC(=O)C3C4CCC(O4)C3C(=O)O)c2C(=O)OC(C)C)cc1 (stereo not given); label 0

**Query** Which result was noted for this compound in the test: `Cc1ccc(C(=O)NC(=S)Nc2cc(C(F)(F)F)ccc2Cl)cc1`
**Result** label 0

**Query** Which result was noted for this compound in the test: `Cc1cc[n+](CC(=O)Nc2cc(C(F)(F)F)ccc2Cl)cc1`
**Result** label 1

**Query** Which result was noted for this compound in the test: `COc1cc(C(=O)Nc2cc(C(F)(F)F)ccc2Cl)cc(OC)c1OC`
**Result** label 0

**Query** Which result was noted for this compound in the test: `COC(=O)CNC(=O)/C=C/c1ccc(OC)cc1`
**Result** label 0

**Query** Which result was noted for this compound in the test: `Cc1cc(C)n(-c2ccc(C(=O)Nc3cc(C(F)(F)F)ccc3N3CCOCC3)cc2)n1`
**Result** label 0

**Query** Which result was noted for this compound in the test: `Cc1ccc(C)n1CCN1CCN(CC(=O)Nc2cc(C(F)(F)F)ccc2Cl)CC1`
**Result** label 1

**Query** Which result was noted for this compound in the test: `O=C(O)CCC/C=C\C[C@@H]1CO[C@H](C(F)(F)F)O[C@@H]1c1ccccc1O`
**Result** label 0

###

- SYSTEM_UNDER_TEST: Cytochrome P450 2D6 (Homo sapiens) (UniProt P10635)
- ASSAY_DETAILS: Cytochrome panel assay with activity outcomes
- EXPERIMENTAL_CONDITIONS: recombinant CYP, pro-luciferin dealkylation, luminescence, p450-cyp2d6; series mostly up to 57.1 µM
The whole screen tested about 16,000 compounds, of which about 2,600 (16%) were called active. Another 20% or so got no clear call; they are omitted. Calls come from the whole dose curve; as a rule, active = well fitted curve in the direction sought with a large enough effect; inconclusive = small, poorly fitted or top-dose-only effect, or effect the other way; inactive = no such curve, though single readings can be large or run the other way. These entries were drawn from the full list.
Pick one and only one: active, inactive

COc1ccc(-n2c(=O)c(C)nc3cnc(N4CCOCC4)nc32)cc1; inactive

Would you kindly look at the next entry?
**Query** Which result was noted for this compound in the test: `C[C@@H]1O[C@H](O[C@@H]2[C@H](C)O[C@H](O[C@@H]3[C@H](C)O[C@H](O[C@H]4CC[C@]5(C)[C@@H](CC[C@@H]6[C@H]5C[C@@H](O)[C@]5(C)[C@@H](C7=CC(=O)OC7)CC[C@]65O)C4)C[C@@H]3O)C[C@@H]2O)C[C@H](O)[C@@H]1O`
**Result** inactive

###

- SYSTEM_UNDER_TEST: Cytochrome P450 2D6 (Homo sapiens) (UniProt P10635)
- ASSAY_DETAILS: Cytochrome panel assay with activity outcomes
- EXPERIMENTAL_CONDITIONS: recombinant CYP, pro-luciferin dealkylation, luminescence, p450-cyp2d6; series mostly up to 57.1 µM
The whole screen tested about 16,000 compounds, of which about 2,600 (16%) were called active. Another 20% or so got no clear call; they are omitted. Calls follow the shape of the dose curve; as a rule, active = well fitted curve in the direction sought with a large enough effect; inconclusive = small, poorly fitted or top-dose-only effect, or effect the other way; inactive = no such curve, though single readings can be large or run the other way. Only a sample is shown.
Pick one and only one: Yes for active, No for inactive

Cc1nc2c(ccc3nc(NC(=O)c4ccc(S(=O)(=O)N(C)C)cc4)sc32)s1; No
O=C(NCc1cc(F)cc2c1OCCO2)[C@H]1C[C@@H]1[C@H](NP(=O)(c1ccccc1)c1ccccc1)c1ccccc1; No
O=C(c1ccco1)N1CCC2(CC1)CN(C(c1ccccc1)c1ccccc1)C2; Yes
Cc1cccc(C2NC(=O)c3c(sc(C)c3C)N2)c1O (stereo not given); No

Would you kindly look at the next entry?
**Query** Which result was noted for this molecule in the test: `O=C(c1ccco1)N1CCC2(CC1)CN(c1ccc(-c3ccccc3)cc1)C2`
**Result** No

###

- SYSTEM_UNDER_TEST: Cytochrome P450 2D6 (Homo sapiens) (UniProt P10635)
- ASSAY_DETAILS: Cytochrome panel assay with activity outcomes; as to activity, negative = inhibition: % is scaled to controls: 0 for no effect and ±100 for the full control effect
- EXPERIMENTAL_CONDITIONS: recombinant CYP, pro-luciferin dealkylation, luminescence, p450-cyp2d6; series mostly up to 57.1 µM
Hit rate of the full screen: of about 16,000 compounds, about 2,600 (16%) were called active. Roughly 20% stayed inconclusive and do not appear here. Not all results are given here.
# activity, negative = inhibition per record follows

Solved entries (count: 5):
O=C(N[C@@]1(C(=O)O)C[C@@H]1c1ccccc1)c1ccccc1; 11.3% [at 11.4 µM] (inactive)
Clc1ccccc1C(Nc1ncccn1)Nc1ncccn1; 1.87% [at 11.4 µM] (inactive)
O=C(C[C@@H](c1ccccc1)N1CCCCC1)c1ccccc1; -19.2% [at 11.4 µM] (inactive)
Cc1c(NC(=O)Nc2c(Cl)cccc2Cl)c(=O)n(-c2ccccc2)n1C; -4.06% [at 11.4 µM] (inactive)
c1cncc(-c2cc(-c3cc(-c4cccnc4)n[nH]3)[nH]n2)c1; -12.7% [at 11.4 µM] (inactive)

**Query** What does the record list as activity, negative = inhibition for `Nc1ncnc2c1ncn2C[C@@H](O)C(=O)O` ?
**Result** 10.9% [at 11.4 µM] (inactive)

**Query** What does the record list as activity, negative = inhibition for `CO[C@H]1COC(=O)[C@H](C)NC(=O)C/C=C\[C@@H](C)[C@@H](NS(=O)(=O)c2ccc(C)cc2)COC(=O)[C@H](OCc2ccccc2)/C=C\[C@@H]1C` ?
**Result** -11.2% [at 11.4 µM] (inactive)

**Query** What does the record list as activity, negative = inhibition for `CO[C@@H]1COC(=O)CC=C[C@@H](C)[C@@H]2C=C[C@H](O)[C@@H](COC(=O)C/C=C\[C@H]1C)O2` ?
**Result** 13% [at 11.4 µM] (inactive)

**Query** What does the record list as activity, negative = inhibition for `O=C(O)[C@H](/C=C\c1ccccc1)c1ccccc1` ?
**Result** -18.1% [at 11.4 µM] (inactive)

**Query** What does the record list as activity, negative = inhibition for `O=C(C[C@@H]1C=Cc2ccccc2N1C(=O)c1ccccc1)c1ccccc1` ?
**Result** -16.3% [at 11.4 µM] (inactive)
